Data origin: ChEMBL document CHEMBL3351765

- Target of assay: Sodium channel protein type 5 subunit alpha (Homo sapiens, UniProt Q14524)
- Sequence (Q14524 whole entry): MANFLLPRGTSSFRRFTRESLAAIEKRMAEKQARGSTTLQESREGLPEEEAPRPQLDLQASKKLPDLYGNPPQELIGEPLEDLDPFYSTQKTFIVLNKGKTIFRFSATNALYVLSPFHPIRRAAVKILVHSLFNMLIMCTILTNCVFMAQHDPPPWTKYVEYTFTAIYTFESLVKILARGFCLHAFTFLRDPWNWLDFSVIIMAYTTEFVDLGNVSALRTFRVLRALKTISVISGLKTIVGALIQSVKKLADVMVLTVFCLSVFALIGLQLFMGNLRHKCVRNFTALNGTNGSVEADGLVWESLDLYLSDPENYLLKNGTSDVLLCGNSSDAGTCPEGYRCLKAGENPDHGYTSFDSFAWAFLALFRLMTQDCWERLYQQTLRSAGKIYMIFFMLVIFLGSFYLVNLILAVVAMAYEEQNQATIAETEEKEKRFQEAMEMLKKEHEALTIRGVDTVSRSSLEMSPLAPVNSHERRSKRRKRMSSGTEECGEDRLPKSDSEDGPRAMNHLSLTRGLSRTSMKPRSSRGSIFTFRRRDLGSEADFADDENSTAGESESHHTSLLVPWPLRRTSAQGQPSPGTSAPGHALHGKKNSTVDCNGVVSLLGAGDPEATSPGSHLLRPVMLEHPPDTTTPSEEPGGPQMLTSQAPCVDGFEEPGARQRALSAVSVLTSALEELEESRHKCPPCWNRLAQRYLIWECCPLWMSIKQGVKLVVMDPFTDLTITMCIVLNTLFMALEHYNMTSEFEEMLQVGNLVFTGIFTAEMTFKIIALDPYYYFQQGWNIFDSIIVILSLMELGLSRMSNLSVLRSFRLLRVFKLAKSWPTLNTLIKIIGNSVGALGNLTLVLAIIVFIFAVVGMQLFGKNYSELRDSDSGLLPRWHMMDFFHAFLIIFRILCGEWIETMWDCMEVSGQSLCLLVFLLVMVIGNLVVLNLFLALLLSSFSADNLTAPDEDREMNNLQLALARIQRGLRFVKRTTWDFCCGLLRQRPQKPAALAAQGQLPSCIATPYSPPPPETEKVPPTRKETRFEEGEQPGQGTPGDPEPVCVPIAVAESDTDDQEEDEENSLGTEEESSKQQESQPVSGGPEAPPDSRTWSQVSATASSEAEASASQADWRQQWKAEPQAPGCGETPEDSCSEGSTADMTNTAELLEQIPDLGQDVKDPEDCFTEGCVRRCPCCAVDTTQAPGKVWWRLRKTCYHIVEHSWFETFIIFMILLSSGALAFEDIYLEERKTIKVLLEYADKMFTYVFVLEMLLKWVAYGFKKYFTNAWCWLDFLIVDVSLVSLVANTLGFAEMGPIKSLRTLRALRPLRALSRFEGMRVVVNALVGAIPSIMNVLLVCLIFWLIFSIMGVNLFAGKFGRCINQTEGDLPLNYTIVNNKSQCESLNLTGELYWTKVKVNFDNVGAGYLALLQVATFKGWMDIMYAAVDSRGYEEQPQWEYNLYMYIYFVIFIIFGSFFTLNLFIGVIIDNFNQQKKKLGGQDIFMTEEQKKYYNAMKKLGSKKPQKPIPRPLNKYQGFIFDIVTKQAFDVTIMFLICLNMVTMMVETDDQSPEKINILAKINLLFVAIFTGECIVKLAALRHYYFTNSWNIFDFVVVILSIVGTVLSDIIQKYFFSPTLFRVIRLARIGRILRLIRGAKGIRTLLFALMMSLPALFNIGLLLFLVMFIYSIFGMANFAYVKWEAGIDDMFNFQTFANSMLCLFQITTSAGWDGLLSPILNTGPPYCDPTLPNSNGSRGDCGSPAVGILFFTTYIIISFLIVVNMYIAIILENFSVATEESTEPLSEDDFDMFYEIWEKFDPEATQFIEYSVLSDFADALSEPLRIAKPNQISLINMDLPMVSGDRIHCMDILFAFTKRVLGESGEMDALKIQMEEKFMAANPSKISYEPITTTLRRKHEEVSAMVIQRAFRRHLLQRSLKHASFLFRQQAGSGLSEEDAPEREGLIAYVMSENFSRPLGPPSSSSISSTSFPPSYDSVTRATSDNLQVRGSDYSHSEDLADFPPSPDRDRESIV
- Assay name: Inhibition of Nav1.5 (unknown origin) expressed in HEK293 cells by IonWorks patch-clamp method
- Assay type: cell-based
pIC50: −log10 of the molar value.
Let's look at some compounds and their measured pIC50.

{"columns": ["Compound string", "pIC50"],
 "data": [
  ["O=S(=O)(Nc1ncns1)N1CCc2c(cccc2-c2ccc(C(F)(F)F)cc2C2=CCNCC2)C1", "< 5.00"],
  ["O=S(=O)(Nc1ncns1)c1ccc2c(c1)OCCN2c1ccc(C(F)(F)F)cc1Cl", "< 5.00"],
  ["Cn1cc(-c2ccc(C(F)(F)F)cc2-c2cn[nH]c2)c2ccc(S(=O)(=O)Nc3ncns3)cc21", "< 5.00"]
]}
